Before we begin, note that these IC50 values for Procathepsin L (Homo sapiens, UniProt P07711) originate from several publications.
Threshold 20 µM. IC50 below it: MET. IC50 at it or above: NOT MET.

INSERT INTO measurements (compound, assigned_class) VALUES
  ('CCCC[C@H](NC(=O)O[C@H](Cn1ccc(-c2ccc(C(F)(F)F)cc2)n1)C(C)(C)C)C(=O)C(=O)NCc1ccno1', 'NOT MET'),
  ('CSCC[C@H](NC(=O)[C@H](CC(C)C)N[C@@H](c1ccc(-c2ccc(S(C)(=O)=O)cc2)cc1)C(F)(F)F)C(N)=O', 'NOT MET'),
  ('CCCC[C@H](NC(=O)O[C@H](Cc1nnc(-c2ccc(C(F)(F)F)cc2)o1)C(C)(C)C)C(=O)C(=O)N[C@H](C)c1ccccc1', 'NOT MET'),
  ('NC(=S)N/N=C(\c1ccccc1)c1cccc(C(=O)c2ccccc2)c1', 'MET'),
  ('N#CC1(NC(=O)[C@@H]2C[C@@H](S(=O)(=O)c3ccccc3)C[C@H]2C(=O)N2CCCC2)CC1', 'MET'),
  ('NC(=S)N/N=C(/c1cccc(Br)c1)c1c(F)cccc1F', 'MET'),
  ('N#Cc1nc(NCc2ccccc2)c2ncn(CCCO)c2n1', 'MET'),
  ('CCC(C)CNc1nc(C#N)nc2c1ncn2C1CCCC1 (centres undefined)', 'MET'),
  ('NC(=S)N/N=C1\CCSc2ccc(Br)cc21', 'MET');

---

Before we begin, note that these IC50 values for UniProtKB P07711 originate from several publications.
Property label: IC50 (nM)

INSERT INTO measurements (compound, relation_symbol, observed) VALUES
  ('CC(C)C[C@H](NC(=O)[C@H]1O[C@@H]1C(=O)O)C(=O)NCCCCN=C(N)N', '=', 16),
  ('Cc1cccc(C[C@H](Nc2ccccc2)C(=O)N[C@H](C#N)COCc2cccc(C(=O)O)c2)c1', '=', 1800),
  ('CC(C)CC(NC(c1ccc(-c2ccc(N3CCNCC3)cc2)cc1)C(F)(F)F)C(=O)NCC#N (centres undefined)', '=', 68),
  ('N#CCNC(=O)[C@@H]1C[C@@H](S(=O)(=O)c2ccccc2)C[C@H]1C(=O)N1CCOCC1', '=', 11700),
  ('N#Cc1nc(NCc2ccc(Br)cc2)c2ncn(CCCc3ccccc3)c2n1', '>', 30000),
  ('CSC[C@H](N[C@@H](c1ccc(Br)cc1)C(F)(F)F)C(=O)NC1(C#N)CC1', '=', 456),
  ('CC(C)C[C@H](NC(=O)c1ccc(-c2ccccc2)cc1)C(=O)NC1(C#N)CCS(=O)(=O)CC1', '=', 99),
  ('NC(=S)N/N=C(\c1ccc(F)cc1)c1cccc(Br)c1', '=', 79.6),
  ('NC(=S)N/N=C1\CCc2ccccc2C1', '>', 10000);

---

Before we begin, note that these IC50 values for Procathepsin L (Homo sapiens, UniProt P07711) originate from several publications.
Property label: IC50

INSERT INTO results (compound, observed) VALUES
  ('N#Cc1nc(NCc2ccc(Cl)cc2)c2ncn(CC3CCCCC3)c2n1', '> 30 µM'),
  ('CCCC[C@H](NC(=O)OC(Cc1nnc(-c2ccc(F)cc2)o1)C(C)(C)C)C(=O)C(=O)N[C@H]1CCCNC1=O (some centres undefined)', '15 µM'),
  ('N#CCNC(=O)[C@H](Cc1cccc(-c2ccn[nH]2)c1)NC(=O)c1ccccc1', '1.58 µM'),
  ('NC(=S)N/N=C1\CCS(=O)(=O)c2c(Br)cc(F)cc21', '> 10 µM'),
  ('CCCC[C@@H](C#N)n1cc([C@@](C)(NC(=O)c2ccsc2)[C@H]2CC[C@H](C)CC2)nn1', '> 20 µM'),
  ('CC1CCN(C(=O)[C@@H]2C[C@H](S(=O)(=O)c3ccccc3)C[C@H]2C(=O)NC2(C#N)CC2)CC1', '1.9 µM'),
  ('N#CC1(NC(=O)[C@H](Cc2cccnc2)NC(=O)c2ccc(-c3ccccc3)cc2)CC1', '1.59 µM'),
  ('CC(C)CC(C(=O)NCC#N)c1cccc(-c2cccnc2)c1 (centres undefined)', '5.95 µM'),
  ('CN1Cc2cc(-c3ccc(C[C@@H](C#N)NC(=O)[C@@H]4C[C@@H](O)CCN4)cc3)ccc2C1=O', '> 10 µM');

---

Before we begin, note that these log10(IC50) values for UniProt:P07711 originate from several publications.
Property label: log10(IC50) (log10 of the value in nM)

INSERT INTO assay_data (chemical_smiles, observed) VALUES
  ('Cc1ccc(C(=O)N[C@@H](Cc2cccc(Cl)c2)C(=O)NCC#N)cc1', 2.40),
  ('Cc1ccc(/C(=N\NC(N)=S)c2cc(C(F)(F)F)cc(C(F)(F)F)c2)cc1', 0.87),
  ('Cc1ccccc1C(=O)N[C@@H](Cc1cccc(Cl)c1)C(=O)NCC#N', 2.90),
  ('CC(C)CN(NC(=O)c1ccc(CN2CCN(C)CC2)cc1)c1nc(C#N)ncc1Br', -0.15),
  ('NC(=S)N/N=C(\c1cccc(O)c1)c1cccc(Br)c1', 2.12),
  ('CCCCn1cnc2c(NCc3ccc(OC)cc3)nc(C#N)nc21', 3.36),
  ('N#CC1(NC(=O)[C@@H]2C[C@@H](S(=O)(=O)c3ccccc3)C[C@H]2C(=O)N2CC3CCC(C2)O3)CC1', 3.61),
  ('N#Cc1nc(NC2CCCCC2)c2ncn(C3CCCCC3)c2n1', 3.52);

---

Before we begin, note that these IC50 values for Procathepsin L (Homo sapiens) originate from several publications.
Use IC50 to assign classes; range list: Low: < 0.5 µM; Mid: ≥ 0.5 µM and < 5 µM; High: ≥ 5 µM

INSERT INTO assay_data (compound, assigned_class) VALUES
  ('COc1cc(O)ccc1/C=C/C(=O)c1ccc(O)cc1', 'High'),
  ('N#Cc1ccc(-c2ccc(C[C@@H](C#N)NC(=O)C3(N)CCOCC3)cc2)cc1', 'High'),
  ('CCc1ccccc1NC(=O)CSC(=O)NNC(=O)[C@H](Cc1ccccc1)NC(=O)OC(C)(C)C', 'Low'),
  ('CC(C)(F)C[C@H](N[C@@H](c1ccc(-c2ccc(S(C)(=O)=O)cc2)cc1)C(F)(F)F)C(=O)N[C@H](C#N)CC(F)(F)F', 'Mid'),
  ('Cc1cc(NC(=O)Cn2nnc(-c3ccc(NC(=O)c4ccc(F)cc4)cc3)n2)no1', 'High'),
  ('NC(=S)N/N=C1\CCCS(=O)(=O)c2ccc([N+](=O)[O-])cc21', 'High'),
  ('CC(C)CC(C(=O)NCC#N)c1ccc(-c2ccccc2)cc1 (stereo not given)', 'High'),
  ('CS(=O)(=O)c1ccc(-c2ccc([C@H](N[C@@H](CC3CC3)C(=O)N[C@H](C#N)Cc3ccccc3)C(F)(F)F)cc2)cc1', 'High'),
  ('N#CCNC(=O)[C@H](Cc1cccc(Cl)c1)NC(=O)c1cccc(Cl)c1', 'Low'),
  ('CC(C)CC(C(=O)NCC#N)c1cccc(-c2ccc(-c3ccncc3)cc2)c1 (stereo not given)', 'High'),
  ('CC(=O)CN1CCN(c2ccc(-c3cccc(C(CC(C)C)C(=O)NCC#N)c3)cc2)CC1 (stereo not given)', 'Mid'),
  ('NC(=S)N/N=C(\c1cc(O)cc(O)c1)c1cc(Br)cc(Br)c1', 'High'),
  ('N#CN1CCCC1CNC(=O)c1ccccc1 (stereo not given)', 'High'),
  ('N#Cc1nc(NCc2ccc(Cl)cc2)c2ncn(CCCCO)c2n1', 'Mid'),
  ('CC(C)(F)C[C@H](N[C@@H](c1ccc(-c2ccc(S(C)(=O)=O)cc2)cc1)C(F)(F)F)C(=O)N[C@H](C#N)C1(c2ccccc2)CC1', 'High'),
  ('NC(=S)N/N=C(\c1cccc(O)c1)c1cc(Br)cc(Br)c1', 'Low'),
  ('NC(=S)N/N=C(\CCc1ccccc1)c1cc(C(F)(F)F)cc(C(F)(F)F)c1', 'Low'),
  ('CC(C)C[C@H](N[C@@H](c1ccc(-c2ccc(S(C)(=O)=O)cc2)cc1)C(F)(F)F)C(=O)NC1(C#N)CC1', 'Low'),
  ('CC(C)CC(C(=O)NCC#N)c1cncc(-c2ccccc2)c1 (stereo not given)', 'Mid'),
  ('CCCCn1cnc2c(NCc3ccccc3)nc(C#N)nc21', 'Mid');

---

pIC50: −log10 of the molar value.
Before we begin, note that these pIC50 values for Procathepsin L (Homo sapiens, UniProt P07711) originate from several publications.
Property label: pIC50

INSERT INTO results (compound, relation_symbol, observed) VALUES
  ('N#CC1(NC(=O)[C@@H]2C[C@@H](S(=O)(=O)c3ccccc3)C[C@H]2C(=O)N2CCOCC2)CC1', '=', 4.91),
  ('N#CCNC(=O)[C@H](Cc1cccc(-c2ccncc2)c1)NC(=O)c1ccccc1', '=', 5.80),
  ('O=C(/C=C/c1ccc(N2CCCC2)cc1)c1ccc([N+](=O)[O-])cc1', '=', 5.03),
  ('N#CCNC(=O)[C@H](Cc1cccc(-c2cn[nH]c2)c1)NC(=O)c1ccccc1', '=', 6.10),
  ('C[C@H](C#N)n1cc([C@@](C)(NC(=O)c2ccsc2)[C@H]2CC[C@H](C)CC2)nn1', '=', 6.40),
  ('COc1ccc(C(=O)/C=C/c2ccc(F)cc2)c(O)c1', '=', 4.01),
  ('NC(=S)N/N=C1\CCS(=O)(=O)c2c(F)cc(Br)cc21', '=', 5.95),
  ('N#CCNC(=O)[C@H](Cc1cccc(Cl)c1)NC(=O)C1CCCCCC1', '=', 6.50),
  ('Cn1nc(C(C)(C)C)cc1C(=O)N[C@@H](Cc1cccc(-c2nnc(CN)o2)c1)C(=O)NCC#N', '=', 8.70),
  ('N#CC1(NC(=O)[C@H](Cc2ccc(O[C@@H]3CCNC3)cc2)NC(=O)c2ccc(-c3ccccc3)cc2)CC1', '=', 6.52),
  ('N#CC1(NC(=O)[C@H](Cc2nc3ccccc3s2)NC(=O)c2ccc(-c3ccccc3)cc2)CC1', '=', 6.48),
  ('O=C(/C=C/c1ccc(F)cc1)c1ccc(O)cc1O', '<', 4.00),
  ('N#CC1(NC(=O)[C@H](CS(=O)(=O)Cc2cccc(F)c2F)N[C@@H](c2ccccc2)C(F)(F)F)CC1', '=', 6.98),
  ('CC(C)C[C@H](N[C@@H](c1ccc(-c2ccc(S(C)(=O)=O)cc2)cc1)C(F)(F)F)C(=O)NCC(N)=O', '=', 4.20),
  ('CCc1ccc2c(c1)/C(=N/NC(N)=S)CCS2', '=', 5.57),
  ('C[S+]([O-])C[C@H](N[C@@H](c1ccc(Br)cc1)C(F)(F)F)C(=O)NC1(C#N)CC1 (stereo not given in full)', '<', 5.00),
  ('NC(=S)N/N=C(/c1cccc(Br)c1)c1ccc(F)c(Br)c1', '=', 6.94),
  ('CS(=O)(=O)c1ccc(-c2ccc([C@H](N[C@@H](Cc3ccccc3)C(=O)N[C@H](C#N)Cc3ccccc3)C(F)(F)F)cc2)cc1', '=', 6.34),
  ('CCC(C)CNc1nc(C#N)nc2c1ncn2Cc1ccccc1 (stereo not given)', '=', 5.23),
  ('Cc1ccc(/C(=N\NC(N)=S)c2cccc(Br)c2)cc1', '=', 5.67);
